Recorded log P values for a group of compounds are listed next.
# Protocol Details: log P
# Assay type: physicochemical
Answer with a number only.

Below, each entry is followed by its recorded log P result.
{"Compound": "CCCCC1(OC(=O)NC(C)C)CCN(C(C=C(C)C)CC(C)(C)c2ccc(C(F)(F)F)cc2)CC1 (centres unmarked) [Compound 216]", "log P": 7.65}
{"Compound": "CC(CC(C)(C)c1ccc(C(F)(F)F)cc1)N1CC[C@H](O)C1 (some centres unmarked) [Compound 233]", "log P": 3.79}
{"Compound": "CC(C)=CC(CC(C)(C)c1ccc(F)cc1)N1CCC(N2CCCCC2)CC1 (centres unmarked) [Compound 133]", "log P": 5.68}
{"Compound": "COc1cc(CCC(C)(C)N2Cc3cccc(C(=O)N4CCN(C(=O)[C@@H]5CCCN5)CC4)c3C2)ccc1O [Compound 260]", "log P": 2.46}
{"Compound": "COc1cc(CCC(C)(C)N2Cc3cccc(C(=O)N4CCN(C(=O)CN(C)C)CC4)c3C2)ccc1O [Compound 258]", "log P": 2.62}

Assign log P to the following record: CC(C)=CC(CC(C)(C)c1ccccc1)N1CCC(C)(O)CC1 (centres unmarked) [Compound 213] 4.25

Provide log P value for the following compound: CC(C)=CC(CC(C)(C)c1ccc(C(F)(F)F)cc1)N1CCCCC1 (centres unmarked) [Compound 61] 6.38

Quickly give me recorded log P for COC[C@@H]1CCCN1C(C)CC(C)(C)c1ccc(C(F)(F)F)cc1 (some centres unmarked) [Compound 276] 4.95

---

# Tested System: potassium channel hERG (Homo sapiens (Human))
# Sequence (Q12809 whole entry): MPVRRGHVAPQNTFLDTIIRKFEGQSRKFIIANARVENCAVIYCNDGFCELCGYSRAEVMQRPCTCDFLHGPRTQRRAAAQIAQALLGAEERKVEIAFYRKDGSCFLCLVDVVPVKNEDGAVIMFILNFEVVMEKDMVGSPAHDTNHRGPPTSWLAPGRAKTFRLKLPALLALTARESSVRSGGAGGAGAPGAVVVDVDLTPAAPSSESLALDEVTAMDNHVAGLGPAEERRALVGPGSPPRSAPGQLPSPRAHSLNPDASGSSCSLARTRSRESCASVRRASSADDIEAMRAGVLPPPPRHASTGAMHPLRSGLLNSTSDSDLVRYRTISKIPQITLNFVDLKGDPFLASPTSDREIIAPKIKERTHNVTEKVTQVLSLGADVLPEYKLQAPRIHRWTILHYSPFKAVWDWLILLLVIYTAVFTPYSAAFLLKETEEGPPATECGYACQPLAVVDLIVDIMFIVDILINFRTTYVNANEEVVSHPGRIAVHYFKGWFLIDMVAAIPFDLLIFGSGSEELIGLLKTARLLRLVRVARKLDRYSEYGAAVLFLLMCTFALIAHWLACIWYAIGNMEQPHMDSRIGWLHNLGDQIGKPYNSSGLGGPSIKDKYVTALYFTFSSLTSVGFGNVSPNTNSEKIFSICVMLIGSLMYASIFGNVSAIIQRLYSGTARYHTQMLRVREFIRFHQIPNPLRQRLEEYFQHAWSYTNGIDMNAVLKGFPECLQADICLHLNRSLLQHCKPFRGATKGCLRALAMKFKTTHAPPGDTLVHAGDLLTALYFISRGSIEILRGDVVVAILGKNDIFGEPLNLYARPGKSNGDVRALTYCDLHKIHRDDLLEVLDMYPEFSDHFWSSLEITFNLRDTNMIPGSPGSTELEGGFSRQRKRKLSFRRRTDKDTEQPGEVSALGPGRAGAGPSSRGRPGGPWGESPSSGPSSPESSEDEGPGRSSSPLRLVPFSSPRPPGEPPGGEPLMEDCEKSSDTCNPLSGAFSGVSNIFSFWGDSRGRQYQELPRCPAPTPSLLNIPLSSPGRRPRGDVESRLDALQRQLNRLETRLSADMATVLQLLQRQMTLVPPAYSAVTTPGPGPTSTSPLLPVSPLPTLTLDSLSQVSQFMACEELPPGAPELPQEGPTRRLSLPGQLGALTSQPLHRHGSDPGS
# Protocol Details: In vitro testing for hERG inhibition
# Type: biochemical
# Measurement Setup: in vitro toxicity potassium channel hERG
Quantity Measured: IC50 (µM)
Answer format: numeric, µM implied, no suffix.

{"Compound": "CC(C)=CC(CC(C)(C)c1ccc(F)cc1)N1CCC(O)CC1 (stereo not shown)", "Quantity Measured": "IC50", "Obs Value": 29}
{"Compound": "CC(C)=CC(CC(C)(C)c1ccc(C(F)(F)F)cc1)N1CCC(O)(c2ccccc2)CC1 (stereo not shown)", "Quantity Measured": "IC50", "Obs Value": 3.9}
{"Compound": "CC(C)=CC(CC(C)(C)c1ccc(S(C)(=O)=O)cc1)N1CCC2(CCOCC2)CC1 (stereo not shown)", "Quantity Measured": "IC50", "Obs Value": 100}

Please examine the following record next.
Determine its reported IC50: CC(C)=CC(CCc1ccc(C)cc1)N1CCC(C2CCOCC2)CC1 (stereo not shown) 11

---

# Protocol Details: log P
# Assay type: physicochemical
# Source text: The term “log P” refers to the partition coefficient of a compound. The partition coefficient is the ratio of concentrations of un-ionized compound in each of two solution phases, for example, octanol and water. To measure the partition coefficient of ionizable solute compounds, the pH of the aqueous phase is adjusted such that the predominant form of the compound is un-ionized. […]
Values of log P greater than or equal to 4 map to condition met; values below map to condition not met.

Use these answered entries as a reference point.
{"Molecule": "CC(C)=CC(CC(C)(C)c1ccc(C(F)(F)F)cc1)N1CCC(CO)CC1 (centres unmarked)", "Class": "condition met"}
{"Molecule": "COCCCC1CCN(C(C=C(C)C)CC(C)(C)c2ccc(Cl)cc2)CC1 (centres unmarked)", "Class": "condition met"}

Please tell me: is the molecule COC[C@H]1CCCN1C(C=C(C)C)CC(C)(C)c1ccc(C(F)(F)F)cc1 (some centres unmarked) at or over 4 in terms of log P? condition met

API: above_or_equal(metric=log P, cutoff=4) for item CC(C)=CC(CC(C)(C)c1ccc(C(F)(F)F)cc1)N1CCOCC1 (centres unmarked) condition met

In plain terms: is recorded log P at least 4 for CC(C)(CCN1CCC(CCO)CC1)c1ccccc1 ? condition not met

Check the entry COCCNC(C=C(C)C)C(C)(C)Oc1ccc(F)cc1 (centres unmarked) : does log P equal or exceed 4? condition not met

For this molecule, is measured log P 4 or higher? COCCOCCC1CCN([C@@H](C=C(C)C)CC(C)(C)c2ccc(C(F)(F)F)cc2)CC1 condition met

---

# Protocol Details: log P
# Assay type: physicochemical
Quick rule for you: log P under 5 gets Fulfilled, anything else gets Not fulfilled.

Would you please look over these solved cases?
{"Compound": "CC(C)=CC(CC(C)(C)c1ccc(C(F)(F)F)cc1)N1CCN(S(=O)(=O)N(C)C)CC1 (stereo not drawn)", "Class": "Fulfilled"}
{"Compound": "CCCCC1(O)CCN(C(C=C(C)C)CC(C)(C)c2ccccc2)CC1 (stereo not drawn)", "Class": "Not fulfilled"}

With those in mind, consider the next compound.
Problem: For the compound COC(=O)C1CCN(CCC(C)(C)c2ccccc2)CC1 , is log P under 5? Fulfilled

---

# Protocol Details: Mouse liver microsome (MLM) stability
# Type: in vitro ADME
# Measurement Setup: microsomal stability in mouse liver microsomes (MLM)
MLM T1/2 overview

{"Compound": "COCCCC1CCN(C(C=C(C)C)CC(C)(C)c2ccc(Cl)cc2)CC1 (centres unmarked) [Compound 23]", "Quantity Measured": "MLM T1/2", "Obs Value": "8.2 min"}
{"Compound": "CC(C)=CC(CC(C)(C)c1ccc(C)cc1)NC1CCOCC1 (centres unmarked) [Compound 100]", "Quantity Measured": "MLM T1/2", "Obs Value": "4.5 min"}
{"Compound": "CC(C)=CC(CC(C)(C)c1ccc(C(F)(F)F)cc1)N1CCC(CO)CC1 (centres unmarked) [Compound 35]", "Quantity Measured": "MLM T1/2", "Obs Value": "60 min"}

In one line, give reported MLM T1/2 of the entry CC(C)=CC(CC(C)(C)c1ccc(Cl)cc1)N1CCC(O)CC1 (centres unmarked) [Compound 77] . 44 min

Report MLM T1/2 for COc1ccc(C(C)(C)CC(C=C(C)C)N(C)CC2CCOCC2)cc1 (centres unmarked) [Compound 113] 8.2 min

Tell me its MLM T1/2 given CC(C)=CC(CC(C)(C)c1ccc(C(F)(F)F)cc1)N1CCC(CCO)CC1 (centres unmarked) [Compound 28] as the entry. 60 min

For CC(C)=CC(CCc1ccc(C)cc1)N1CCC(C2CCOCC2)CC1 (centres unmarked) [Compound 114] , write its MLM T1/2. 1.8 min

Consider the compound CC(C)=CC(CC(C)(C)c1ccc(S(C)(=O)=O)cc1)N1CCC2(CCOCC2)CC1 (centres unmarked) [Compound 82] . State its measured MLM T1/2. 60 min

Provide one value: measured MLM T1/2 of CC(C)=CC(CCc1ccc(C)cc1)N1CCCCC1 (centres unmarked) [Compound 94] 1.8 min

---

# Protocol Details: log P
# Assay type: physicochemical
Quantity Measured: log P
// response body must contain only the number

{"Compound": "CC(C)=CC(CC(C)(C)c1ccc(C(F)(F)F)cc1)N1CCC(F)CC1 (stereo not drawn)", "log P": 5.74}
{"Compound": "COCCOCCC1CCN(C(C=C(C)C)CC(C)(C)c2ccc(C(F)(F)F)cc2)CC1 (stereo not drawn)", "log P": 6.28}
{"Compound": "CC(C)=CC(CC(C)(C)c1ccc(F)cc1)N1CCC(CCO)CC1 (stereo not drawn)", "log P": 4.94}
{"Compound": "CC(C)=CC(COc1ccc(Cl)cc1)N1CCC(CCO)CC1 (stereo not drawn)", "log P": 4}
{"Compound": "COc1ccc(C(C)(C)CC(C=C(C)C)NC2CCOCC2)cc1 (stereo not drawn)", "log P": 4.08}
{"Compound": "CCOC(=O)C1CCN(CCC(C)(C)c2ccc(Cl)cc2)CC1", "log P": 4.41}
{"Compound": "CC(C)=CC(CC(C)(C)c1ccc(C(F)(F)F)cc1)N1CCN(S(C)(=O)=O)CC1 (stereo not drawn)", "log P": 4.1}
{"Compound": "COCCOCCC1CCN(CCC(C)(C)c2ccc(C(F)(F)F)cc2)CC1", "log P": 4.85}

Identify measured log P corresponding to CC(C)(CC(c1ccccc1)N1CCC(C2CCOCC2)CC1)c1ccc(Cl)cc1 (stereo not drawn) 6.67

// Input: CC(C)=CC(CC(C)(C)c1ccc(Cl)cc1)N1CCC(C)(O)CC1 (stereo not drawn) . Output its log P only. 4.86

Return log P for the following compound: COC1CCN(C(C=C(C)C)CC(C)(C)c2ccccc2)CC1 (stereo not drawn) 4.62

Consider the compound COCCCC1CCN(C(C=C(C)C)COc2ccc(F)cc2)CC1 (stereo not drawn) . State its measured log P. 4.63

Answer with the recorded log P for the compound listed here: CC(C)=CC(CC(C)(C)c1ccc(N2CCOCC2)cc1)N1CCC(C(F)(F)F)CC1 (stereo not drawn) 5.96

Output measured log P for this item: CC(C)=CC(CCc1ccc(Cl)cc1)N1CCOCC1 (stereo not drawn) 4.45

State, in one line, measured log P of CC(C)=CC(CC(C)(C)c1ccc(Cl)cc1)N1CCC(N2CCOCC2)CC1 (stereo not drawn) 5.07

State its log P: CC(C)(CCN1CCC(C)(c2ccccc2)CC1)c1ccc(F)cc1 4.34

Consider the compound COC[C@H]1CCCN1[C@@H](C)CC(C)(C)c1ccc(C(F)(F)F)cc1 and give its recorded log P. 4.95

Give a short answer stating reported log P for COCC1CCCN1C(C=C(C)C)CC(C)(C)c1ccccc1 (stereo not drawn) . 5.07
